Exercise: state measured cytotoxicity at 10 µM for each of the compounds provided.
- Test summary: Toxicity liver stage against HepG2, at 10uM
- Assay type: cell-based
- Design: test concentration 10 uM, cell line HepG2-A16-CD81EGFP
- Run parameters: human, HepG2-A16-CD81EGFP cells; read-out: INHIBITION

*Q* Provide cytotoxicity at 10 µM value for the following compound: CCc1nnc(SCc2nonc2C)n1C1CC1
*A* 0.649%

*Q* Provide cytotoxicity at 10 µM value for the following compound: CCN(Cc1c(F)cccc1Cl)c1cc(C2CCNCC2)nc(C)n1
*A* 5.16%

*Q* Provide cytotoxicity at 10 µM value for the following compound: Cc1ncccc1C(=O)Nc1cccc(C[S+](C)[O-])c1C (stereo not given)
*A* 4.08%

*Q* Provide cytotoxicity at 10 µM value for the following compound: COc1ncccc1CNCc1c(C(C)C)nn(C)c1Cl
*A* -3.74%

*Q* Provide cytotoxicity at 10 µM value for the following compound: COC(=O)Cn1c(C)cc(=O)c2cc(F)ccc21
*A* 2.63%

*Q* Provide cytotoxicity at 10 µM value for the following compound: Cc1csc(NC(=O)c2cccnc2N2CCOCC2)n1
*A* -4.75%

*Q* Provide cytotoxicity at 10 µM value for the following compound: CCN(CC1CCCO1)C(=O)Nc1ccc(OC)c(C)c1 (stereo not given)
*A* -12.9%

*Q* Provide cytotoxicity at 10 µM value for the following compound: COc1ccc(C)cc1CN1CCN(Cc2nccn2C)CC1
*A* 5.5%

*Q* Provide cytotoxicity at 10 µM value for the following compound: COc1cccc(-c2cnnc(N(C)CCC3CCCCO3)n2)c1 (stereo not given)
*A* 12.7%

*Q* Provide cytotoxicity at 10 µM value for the following compound: CC1=NOC(C(=O)N(C)CCCn2nc(C)cc2C)C1 (stereo not given)
*A* 3.53%

*Q* Provide cytotoxicity at 10 µM value for the following compound: CC(c1nc(C2CC2)no1)N1CCN(CC(=O)N2CCOCC2)CC1 (stereo not given)
*A* 6.75%

*Q* Provide cytotoxicity at 10 µM value for the following compound: NC(=O)CN1CCC(NCc2cc(C(F)(F)F)ccc2Cl)CC1
*A* -3.01%

*Q* Provide cytotoxicity at 10 µM value for the following compound: COc1ccc(C2(c3nc(-c4cnn(C)c4)no3)CCOCC2)cc1
*A* 11.4%

*Q* Provide cytotoxicity at 10 µM value for the following compound: Cn1cc(-c2ncnc3c2CCN(C(=O)c2cscn2)CC3)cn1
*A* 1.15%

*Q* Provide cytotoxicity at 10 µM value for the following compound: CC(=O)N(C)Cc1ccc(OCc2cccs2)cc1
*A* 12.4%

*Q* Provide cytotoxicity at 10 µM value for the following compound: O=C(CCS(=O)(=O)c1ccccc1)N1CCCC(n2cccn2)C1 (stereo not given)
*A* -14.7%

*Q* Provide cytotoxicity at 10 µM value for the following compound: COc1cc(C(=O)NC(C)c2cccs2)cc2c1OCCO2 (stereo not given)
*A* -18.2%

*Q* Provide cytotoxicity at 10 µM value for the following compound: O=C(Cc1ccsc1)N1CCCC(c2n[nH]c3ncccc23)C1 (stereo not given)
*A* -6.8%

*Q* Provide cytotoxicity at 10 µM value for the following compound: CN1CC(c2cc(O)nc(NCc3ccc(Cl)cc3)n2)CC1=O (stereo not given)
*A* -9.54%

*Q* Provide cytotoxicity at 10 µM value for the following compound: CN(C)C(=O)C1CCN(Cc2csc(C(C)(C)C)n2)CC1
*A* -23%

*Q* Provide cytotoxicity at 10 µM value for the following compound: Cc1cccc2cc(C(=O)N3CCN(S(=O)(=O)N(C)C)CC3)n(C)c12
*A* 7.39%

*Q* Provide cytotoxicity at 10 µM value for the following compound: O=C(c1ccc2nncn2c1)N1CCSC2(CCCCC2)C1
*A* -5.32%

*Q* Provide cytotoxicity at 10 µM value for the following compound: Cc1cnc(C(=O)Nc2cc(F)ccc2OCC2CCCO2)cn1 (stereo not given)
*A* -4.83%

*Q* Provide cytotoxicity at 10 µM value for the following compound: Cc1ccccc1C(=O)NCC(O)c1ccc(F)c(F)c1 (stereo not given)
*A* -10.1%

*Q* Provide cytotoxicity at 10 µM value for the following compound: Cc1cscc1-c1nc(C2CCOC2)no1 (stereo not given)
*A* 8.4%

Entry source: ChEMBL document CHEMBL4513216
